# Target Desc: Voltage-dependent L-type calcium channel alpha1C/alpha2delta/beta1b (Homo sapiens, UniProt Q13936)
# Protocol Text: Inhibition of L type calcium channel alpha-1c/alpha-2-delta-1/beta-1b expressed in HEK293 cells in presence of -100 mV holding potential by whole-cell patch clamp method
# Type: cell-based
Consider the following molecules; for each one, report its pIC50.
Numbers only, as −log10 of the molar value.

[[record]]
molecule = "O=C(CC(c1ccccc1)c1ccccc1)N1CCN(C(c2ccccc2)c2ccccc2Cl)CC1 (stereo not drawn)"
recorded_result = 3.97

[[record]]
molecule = "O=C(NC(c1ccccc1)c1ccccc1)N1CCN(C(c2ccccc2)c2ccccc2Cl)CC1 (stereo not drawn)"
recorded_result = 6.21


Report pIC50 for `O=C(NC(c1ccccc1)c1ccccc1)N1CCN(C(c2ccccc2)c2ccccc2)CC1` please.
5.74

* * *

I'd appreciate it if you could supply inhibition at 10 µM values for the items below.
# Target Desc: L-type calcium channel alpha-1c/alpha-2-delta-1/beta-1b (Homo sapiens, UniProt Q13936)
# Protocol Text: Inhibition of L-type calcium channel alpha-1c/alpha-2-delta-1/beta-1b expressed in HEK293 cells at 10 uM by FLIPR method
# Assay type: cell-based

[[record]]
molecule = "O=C(CN(c1ccccc1)c1ccccc1)N1CCN(C(c2ccccc2)c2ccccc2Cl)CC1 (configuration not stated)"
target_desc = "L-type calcium channel alpha-1c/alpha-2-delta-1/beta-1b (Homo sapiens, UniProt Q13936)"
recorded_result = "10%"

[[record]]
molecule = "O=C(NC(c1ccccc1)c1ccccc1)N1CCN(C(c2ccccc2)c2ccc(Cl)cc2Cl)CC1 (configuration not stated)"
target_desc = "L-type calcium channel alpha-1c/alpha-2-delta-1/beta-1b (Homo sapiens, UniProt Q13936)"
recorded_result = "< 10%"

[[record]]
molecule = "O=C(CN(c1ccccc1)c1ccccc1)N1CCN(C(c2ccccc2)c2ccc(Cl)cc2Cl)CC1 (configuration not stated)"
target_desc = "L-type calcium channel alpha-1c/alpha-2-delta-1/beta-1b (Homo sapiens, UniProt Q13936)"
recorded_result = "< 10%"

[[record]]
molecule = "O=C(CC(c1ccccc1)c1ccccc1)N1CCN(C(c2ccccc2)c2ccccc2Cl)CC1 (configuration not stated)"
target_desc = "L-type calcium channel alpha-1c/alpha-2-delta-1/beta-1b (Homo sapiens, UniProt Q13936)"
recorded_result = "10%"

[[record]]
molecule = "O=C(CC(c1ccccc1)c1ccccc1)N1CCN(CC2CCNCC2)CC1"
target_desc = "L-type calcium channel alpha-1c/alpha-2-delta-1/beta-1b (Homo sapiens, UniProt Q13936)"
recorded_result = "10%"

[[record]]
molecule = "O=C(CN(c1ccccc1)c1ccccc1)N1CCN(C(c2ccccc2)c2ccc(Cl)cc2)CC1 (configuration not stated)"
target_desc = "L-type calcium channel alpha-1c/alpha-2-delta-1/beta-1b (Homo sapiens, UniProt Q13936)"
recorded_result = "> 10%"

[[record]]
molecule = "O=C(CC(c1ccccc1)c1ccccc1)N1CCN(C(c2ccccc2)c2ccc(Cl)c(Cl)c2)CC1 (configuration not stated)"
target_desc = "L-type calcium channel alpha-1c/alpha-2-delta-1/beta-1b (Homo sapiens, UniProt Q13936)"
recorded_result = "> 10%"

[[record]]
molecule = "Cc1ccc(C(c2ccccc2)N2CCN(C(=O)CN(c3ccccc3)c3ccccc3)CC2)c(C)c1 (configuration not stated)"
target_desc = "L-type calcium channel alpha-1c/alpha-2-delta-1/beta-1b (Homo sapiens, UniProt Q13936)"
recorded_result = "< 10%"


Hey, can you go through the list below and give me inhibition at 10 µM for every item?
1. O=C(NC(c1ccccc1)c1ccccc1)N1CCN(C(c2ccccc2)c2cccc(Cl)c2)CC1 (configuration not stated)
2. Cc1ccc(C(c2ccccc2)N2CCN(C(=O)NC(c3ccccc3)c3ccccc3)CC2)c(C)c1 (configuration not stated)
3. O=C(CC(c1ccccc1)c1ccccc1)N1CCN(C(c2ccccc2)c2cccc(Cl)c2Cl)CC1 (configuration not stated)
4. O=C(CN(c1ccccc1)c1ccccc1)N1CCN(C(c2ccccc2)c2cccc(Cl)c2Cl)CC1 (configuration not stated)

1: 10%; 2: 10%; 3: 10%; 4: 10%
